Each entry below carries its reported TGI.
- System: M14 melanoma
- measurement description: NCI tumour cell line growth inhibition, 48 h

O=C1c2c(c3c4ccccc4n(CCCCCCBr)c3c3[nH]c4ccccc4c23)C(=O)N1O :: 7.68 µM
CN(C)CCCOc1nc2c(c(=O)n(C)c(=O)n2C)n1C (tested in a mixture with another compound) :: > 100 µM
CCCCN1C(=O)CC2[C@@H]3CCc4cc(OC(C)=O)ccc4C3CC[C@]2(C)C1=O (stereo not given in full) :: > 10 µM
COc1ccc(N2C(=O)C3c4[nH]c5ccc(OCc6ccccc6)cc5c4C4CCC(C(C)(C)C)CC4C3C2=O)cc1 (stereo not given) :: > 100 µM
NC(N)=NS(=O)(=O)c1ccc(NCc2c3ccccc3[n+]([O-])c3ccccc23)cc1 :: > 100 µM
CN(C)/N=N/c1nc2c(c(=O)n(C)c(=O)n2C)n1C :: > 100 µM

Record request: TGI value, item `Nc1ccc2nc(-c3ccccn3)c(-c3ccccn3)nc2c1` > 100 µM

Record request: TGI value, item `CCN(CC)CCc1c2c(nc3ccccc13)C(=O)c1cccnc1C2=O` 1.73 µM

Record request: TGI value, item O=C1OCc2c1cc1ccc(O)c(OC3OC(CO)C(O)C(O)C3O)c1c2-c1ccc2c(c1)OCO2 (stereo not given) > 100 µM

Record request: TGI value, item `O=C1/C(=C/c2ccc(Br)cc2)C=C(c2ccccc2)N1CCc1ccccc1` 71.8 µM

----------
- Tested on: CAKI-1 renal
- measurement description: NCI tumour cell line growth inhibition, 48 h
Each entry below carries its reported GI50.

Use the examples below as a reference point.
Cc1ccc(S(=O)(=O)N(CCOc2ccc(/C(N)=N/Cl)cc2)CCOc2ccc(/C(N)=N\Cl)cc2)cc1 :: 76.6 µM
CSc1cc(N=Nc2nc3ccccc3s2)c2ccccc2c1O :: 10.1 µM

Record request: GI50 value, item `N#Cc1ccc(C#Cc2ccccc2C#CCCCCO)cc1` 21 µM

Record request: GI50 value, item `O=C1/C(=C/c2ccc(Br)cc2)C=C(c2ccccc2)N1CCc1ccccc1` 1.23 µM

Record request: GI50 value, item `COc1cc(OC)cc(-c2ccc(-c3ccc(C(=N)N)o3)o2)c1` 4.33 µM

Record request: GI50 value, item `O=c1oc2ccc(F)cc2c(=O)n1-c1ccc(F)cc1F` 1.98 µM

----------
- Tested on: MDA-MB-435
- measurement description: NCI tumour cell line growth inhibition, 48 h; in the data active = GI50 below about 0.43 µM; inactive = the rest
Output constraint: value belongs to true for active, false for inactive

Here's what some known entries look like.
O=C(c1ccco1)c1nc2ccc(C(F)(F)F)cc2[n+]([O-])c1C(F)(F)F :: false
Cc1ccc(CS/C(=C\c2ccc([N+](=O)[O-])cc2)C(=O)c2ccc(F)cc2)cc1 :: false
N#CSCC1CC(O)(c2ccccc2)C(c2ccccc2)C(c2ccc(Cl)cc2)O1 (stereo unspecified) :: false
COc1cc(OC)cc(-c2ccc(-c3ccc(C(=N)N)o3)o2)c1 :: false
CC[CH2][Pb]([CH2]CC)([CH2]CC)[O]C(=O)C(F)(F)F :: true

Record request — test call for O=C(NCCOCCOCCNc1cccc2c1C(=O)N(C1CCCNC1=O)C2=O)c1cc2c(o1)C(=O)c1ccccc1C2=O (stereo unspecified) false

Record request — test call for `COc1ccc2[nH]c(O)c(/C=c3/cc4c(c(-c5cc(OC)c(OC)c(OC)c5)n3)=Nc3ccccc3-4)c2c1` false

Record request — test call for CC1=C(C(=O)Nc2ccc3[nH]ncc3c2)C(c2ccc3ccccc3c2)CC(=O)N1 (stereo unspecified) false

Record request — test call for `COC(=O)c1cc2c3ccccc3[nH]c2c2ncccc12` false

Record request — test call for `COc1cc2c3c(n(C)c(=O)c2cc1OC)-c1cc2c(cc1/C3=C\CCCN1C(=O)c3ccccc3C1=O)OCO2` false

Record request — test call for `Cc1ccc(S(=O)(=O)N(CCOc2ccc(/C(N)=N/Cl)cc2)CCOc2ccc(/C(N)=N\Cl)cc2)cc1` false

----------
Each entry below carries its reported TGI.
- System: HCT-116 colon
- measurement description: NCI tumour cell line growth inhibition, 48 h
The figure you give is taken to be in nM; do not add the unit.

Use the examples below as a reference point.
CCN(CC)CCc1c2c(nc3ccccc13)C(=O)c1cccnc1C2=O :: 3530
CN1CCN(Cc2ccc(NC(=O)c3cncc(C#Cc4cnc(N)c5ccc(C#N)cc45)c3)cc2C(F)(F)F)CC1 :: 672
CC(CN1c2ccccc2Sc2ccccc21)N(C)C (stereo unspecified) :: 28900
C=C1CC(COc2cc(=O)oc3ccccc23)(c2ccccc2)OC1=O (stereo unspecified) :: 2870

Next compound, TGI to be filled in.
Record request: TGI value, item `O=C(Nc1ccc(N2CCNCC2)cc1)c1[nH]ncc1Nc1cc(Oc2ccccc2)ncn1` 2990

----------
- Tested on: HCC-2998 colon
- measurement description: NCI tumour cell line growth inhibition, 48 h; in the data active means GI50 below about 0.43 µM; inactive means the rest
Output constraint: value belongs to true = active, false = inactive

Here's what some known entries look like.
COc1cc(OC)cc(-c2ccc(-c3ccc(C(=N)N)o3)o2)c1 :: false
Cc1ccc2c(c1)C(=O)/C(=C/c1ncc([N+](=O)[O-])n1C)O2 :: false
COc1cccc(/C=N/NC(=O)c2ccccc2Nc2ccnc(C(F)(F)F)c2)c1O :: true
N#C/C(=C1C=C/C(=N/O)C(Br)=C/1)c1ccccc1 :: false

Record request — test call for `O=C1/C(=C/c2ccc(Cl)cc2Cl)N=C(c2ccccc2)N1Cc1ccco1` false

Record request — test call for `O=C(Nc1ccc(N2CCNCC2)cc1)c1[nH]ncc1Nc1cc(Oc2ccccc2)ncn1` false

Record request — test call for O=C1OCc2c1cc1ccc(O)c(OC3OC(CO)C(O)C(O)C3O)c1c2-c1ccc2c(c1)OCO2 (centres undefined) false

Record request — test call for `O=c1oc2ccc(F)cc2c(=O)n1-c1ccc(F)cc1F` false

Record request — test call for `COC(=O)CCCCN=Cc1c(O)c(O)c(C(C)C)c2cc(C)c(-c3c(C)cc4c(C(C)C)c(O)c(O)c(C=NCCCCC(=O)OC)c4c3O)c(O)c12` false

----------
- System: KM12 colon
- measurement description: NCI tumour cell line growth inhibition, 48 h
readout kind: TGI (µM)
The figure you give is taken to be in µM; do not add the unit.

O=C(NCCOCCOCCNc1cccc2c1C(=O)N(C1CCCNC1=O)C2=O)c1cc2c(o1)C(=O)c1ccccc1C2=O (centres undefined) :: 10

Next compound, TGI to be filled in.
Record request: TGI value, item CC12CC[C@@H](C(C)(C)O)C1[C@@H](O)CC1(C)C2CCC2[C@@]3(C)CC[C@H](O)C(C)(C)C3C(O)C[C@]21C (some centres undefined) 38.1

----------
- Tested on: NCI/ADR-RES ovarian
- measurement description: NCI tumour cell line growth inhibition, 48 h; in the data active = GI50 below about 0.43 µM; inactive = the rest
Output constraint: value belongs to active, inactive

Here's what some known entries look like.
CCCCC/C(C=C(C#N)C#N)=C/c1ccccc1 :: inactive
C=C(CN1CCc2ccccc2C1)c1ccc(C(=O)Nc2cnccn2)cc1 :: inactive
COC(=O)CCCCN=Cc1c(O)c(O)c(C(C)C)c2cc(C)c(-c3c(C)cc4c(C(C)C)c(O)c(O)c(C=NCCCCC(=O)OC)c4c3O)c(O)c12 :: inactive

Record request — test call for `CC1=C(CCCNS(C)(=O)=O)C2=C(C)C3(CC3)[C@@](C)(O)C(=O)C2=C1` inactive

Record request — test call for CC1OC(O[C@H]2C[C@@H](O)[C@]3(CO)[C@H]4[C@H](O)C[C@]5(C)[C@@H](C6=CC(=O)OC6)CC[C@]5(O)[C@@H]4CC[C@]3(O)C2)C(O)C(O)C1O (stereo not given in full) inactive

Record request — test call for N#CSCC1CC(O)(c2ccccc2)C(c2ccccc2)C(c2ccc(Cl)cc2)O1 (stereo not given) inactive

Record request — test call for `COc1ccc(/C(=C2\O[C@@H]([C@H]3COC(C)(C)O3)[C@H]3OC(C)(C)O[C@@H]23)c2cc(OC)c(OC)c(OC)c2)cc1O` inactive

Record request — test call for `Cc1c(C(=O)N/N=C/c2ccc(Cl)cc2)nnn1-c1ccnc2c(C(F)(F)F)cccc12` inactive

Record request — test call for `CSc1cc(N=Nc2nc3ccccc3s2)c2ccccc2c1O` inactive

----------
- Tested on: SW-620 colon
- measurement description: NCI tumour cell line growth inhibition, 48 h
Each entry below carries its reported log10 of TGI.
Note the log scale: values are log10 of TGI expressed in µM.

CC(C)c1ccc2[nH]c(O)c(-c3[nH]c4ccccc4c3N=O)c2c1 :: 1.40
O=C(O)CN(CCNC(=O)OCC1c2ccccc2-c2ccccc21)CCNC(=O)OCC1c2ccccc2-c2ccccc21 :: 1.63
COc1cc(OC)cc(-c2ccc(-c3ccc(C(=N)N)o3)o2)c1 :: 0.61

Record request: log10 of TGI value, item O=C(NCCOCCOCCNc1cccc2c1C(=O)N(C1CCCNC1=O)C2=O)c1cc2c(o1)C(=O)c1ccccc1C2=O (stereo not given) 0.88

Record request: log10 of TGI value, item `COc1ccc2[nH]c3c(C)c4c(c(C)c3c2c1)CN(C)CC4` 1.19

Record request: log10 of TGI value, item CCCCCCCCCC[C@@H](O)[C@@H]1CC[C@H]([C@H]2CC[C@@H]([C@@H](O)CCCCCCCCCC[C@H]3CC(CC(C)=O)C(=O)O3)O2)O1 (stereo not given in full) 1.58

Record request: log10 of TGI value, item `NCC(=O)NS(=O)(=O)OC[C@H]1O[C@@H](n2cnc3c(N)ncnc32)[C@H](O)[C@@H]1O` 1.39

Record request: log10 of TGI value, item `CC1=C(O)C(=O)[C@@H]2O[C@@H]2C1=O` 1.13

Record request: log10 of TGI value, item `O=C(NNC(=S)Nc1ccc(Cl)cc1)c1cc(-c2ccccc2)nc2ccccc12` 1.26

Record request: log10 of TGI value, item `Cc1cc(N(CCOS(C)(=O)=O)CCOS(C)(=O)=O)ccc1C=Nc1ccc(-c2nc(Cc3ccccc3)sc2C)cc1` 1.66

Record request: log10 of TGI value, item `CCc1c(Oc2ccc(C(C)=O)cc2)c2ccccc2[nH]c1=O` 1.83
